- Target Entity: human CD40 expressed on the cell surface (human, UniProt P25942 21-277)
- Sequence (P25942 21-277): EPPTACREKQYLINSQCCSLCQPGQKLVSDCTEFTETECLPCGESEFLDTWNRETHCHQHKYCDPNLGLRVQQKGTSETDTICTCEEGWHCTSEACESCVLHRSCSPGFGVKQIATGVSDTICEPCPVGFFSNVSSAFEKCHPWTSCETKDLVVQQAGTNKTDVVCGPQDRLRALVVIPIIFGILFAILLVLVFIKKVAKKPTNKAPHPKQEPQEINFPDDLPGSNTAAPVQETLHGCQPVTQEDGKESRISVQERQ
- Test Name: cell-based or functional assay
Endpoint Label: CD95 expression on Ramos cells without crosslinking agent (FACS)

- Binder: "C8-10 antibody (antibody, V domains shown) VH: EVQLLESGGGLVRPGGSLRLSCAASGFTFGSYEMNWVRQAPGKGLEWVSYISSSGETTDYADSVKGRFTVSRDNSKNLLYLQMNSLRAEDTAVYYCARDVFFFDSSGFPGAYGMDVWGQGTMVTVSS VL: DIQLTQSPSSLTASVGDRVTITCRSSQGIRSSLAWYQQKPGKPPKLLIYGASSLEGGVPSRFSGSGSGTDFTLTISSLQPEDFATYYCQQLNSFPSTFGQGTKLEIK"
  Reported Value: "~10 times weaker than APX005"
- Binder: "C8-2 antibody (antibody, V domains shown) VH: EVQLLESGGGLVRPGGSLRLSCAASGFTFGSYEMNWVRQAPGKGLEWVSYISSSGETTDYADSVKGRFTVSRDNSKNLLYLQMNSLRAEDTAVYYCARDVFFFSPSGDNGAYGMDVWGQGTMVTVSS VL: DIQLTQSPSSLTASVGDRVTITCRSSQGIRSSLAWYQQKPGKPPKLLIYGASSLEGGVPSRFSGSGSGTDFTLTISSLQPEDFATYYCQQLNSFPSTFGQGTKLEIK"
  Reported Value: "~10 times weaker than APX005"
- Binder: "C8-9 antibody (antibody, V domains shown) VH: EVQLLESGGGLVRPGGSLRLSCAASGFTFGSYEMNWVRQAPGKGLEWVSYISSSGETTDYADSVKGRFTVSRDNSKNLLYLQMNSLRAEDTAVYYCARDVFFFDSSRPNGAYGMDVWGQGTMVTVSS VL: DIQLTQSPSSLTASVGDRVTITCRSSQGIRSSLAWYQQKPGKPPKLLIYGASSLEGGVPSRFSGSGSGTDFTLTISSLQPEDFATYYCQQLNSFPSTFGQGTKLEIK"
  Reported Value: "~10 times weaker than APX005"
